Data origin, for the record: PubChem BioAssay (NCI)

# protocol-text: NCI Yeast Anticancer Drug Screen. Data for the rad50 strain (AID 155)
# protocol-conditions: S. cerevisiae rad50 strain growth inhibition; at 50.0 µM (retest, dose inferred, filed as 5.0)
Compounds without any hit were thinned out: in the full panel of roughly 79,000, 15% have a hit. Calls of active or inactive are those of the source. Cut-off read from the data, not from the text of the source: active = growth inhibition above about 70%; inactive = the rest.
Select the correct class. Options are active, inactive and nothing else.

In this assay, the call recorded for O=Cc1coc2ccccc2c1=O was what?
inactive

In this assay, the call recorded for CN[C@@H]1C[C@H]2O[C@@](C)([C@@H]1OC)n1c3ccccc3c3c4c(c5c6ccccc6n2c5c31)C(=O)N[C@@H]4O was what?
inactive

In this assay, the call recorded for C=C(C)[C@@H]1CCc2c(O)c(O)c(=O)cc(C)c2C1 was what?
active

In this assay, the call recorded for COc1ccc2oc(-c3ccc(Cl)cc3)c(N3CCN(C)CC3)c2c1 was what?
active

In this assay, the call recorded for C(=N/NC1=NCCN1)/c1c2ccccc2c(/C=N\NC2=NCCN2)c2ccccc12 was what?
active

In this assay, the call recorded for O=C(O)c1cccc2cccc(-c3c4ccc(=O)cc-4oc4cc(O)ccc34)c12 was what?
active

In this assay, the call recorded for CCN(CC)CC(O)c1cc(-c2ccc(Cl)cc2)nc2c(-c3ccccc3)cccc12 (stereo not given) was what?
active

In this assay, the call recorded for CN(N=O)c1ccc(/C=C/c2ccnc3ccccc23)cc1 was what?
active

In this assay, the call recorded for CC1=CCCC2C1(C)CCC(C)C2(C)Cc1cc(O)ccc1O (stereo not given) was what?
active

In this assay, the call recorded for O=C1CC(=O)N(C2CCCCC2)C(=O)N1c1ccccc1S(=O)(=O)Oc1ccccc1 was what?
active
